# System: KM12 colon
# assay: NCI tumour cell line growth inhibition, 48 h
// reported TGI for each item listed

Past entries and their recorded results:
# molecule, TGI
data = [
    ("C[N+](C)(C)CCc1ccccc1", "> 100 µM"),
    ("CCN1C(=O)c2cc(OC)c(OC)cc2C(=O)C12OC(=O)c1cc3c(cc12)OCO3 (stereo unspecified)", "> 100 µM"),
    ("Cc1ccc(/C=C/C(=O)C(C)(C)CN2CCCCC2)cc1", "13.4 µM"),
]

Notebook: O=C1NC(=O)C2C(=O)NC(=O)C1C2c1c(Cl)cccc1Cl (stereo unspecified) , TGI read as > 100 µM

Notebook: FC(F)(F)c1ccc(-c2cnc(-c3ncon3)nc2NC2CCCCCC2)cc1 , TGI read as > 100 µM

Notebook: Cc1c(/C=N/N=C/c2[nH]c(C(=O)OC(C)(C)C)c(C)c2C)[nH]c(C(=O)OC(C)(C)C)c1C , TGI read as > 100 µM

----------
# Test system: SNB-19 CNS
# assay: NCI tumour cell line growth inhibition, 48 h; in the data active = GI50 below about 0.43 µM; inactive = the rest
Outcome (select one): active, inactive

A selection of reference data follows.
# compound, system, class
data = [
    ("CCCCCCCCCCCCCCCCCC1=NCCN1CCOC1=C(Cl)C(=O)c2ccccc2C1=O", "SNB-19 CNS", "inactive"),
    ("COc1ccc(-c2nc(Nc3cc(C)[nH]n3)c3ccccc3n2)cc1", "SNB-19 CNS", "inactive"),
]

Challenge: Lab log entry: CN(C)CCCn1c(=O)c2ccccc2c2ccccc21 — outcome as called in the assay?
Response given: inactive

Challenge: Lab log entry: CCOc1ccccc1C(=O)N1CCN(c2cc(Cl)cc(Cl)c2)CC1 — outcome as called in the assay?
Response given: active

Challenge: Lab log entry: OCc1ccc(N2CCCC2c2ccccc2)cc1Cl (stereo unspecified) — outcome as called in the assay?
Response given: inactive

Challenge: Lab log entry: O=C1c2cccnc2C(=O)c2c1c(C(=O)NCCCN1CCCCC1)c1ccccn21 — outcome as called in the assay?
Response given: inactive

----------
// reported TGI for each item listed
# System: EKVX NSCLC
# assay: NCI tumour cell line growth inhibition, 48 h

Past entries and their recorded results:
# compound, TGI
rows = [
    ("O=C1C=CC2(C=C1)O[C@H](Cc1ccccc1)[C@@H](Cc1ccccc1)O2", "1.76 µM"),
    ("CO/N=C(\\COc1ccc2c(c1)[nH]c1ccccc12)c1ccc(F)cc1", "> 100 µM"),
    ("CC(=O)OC12C=C(C)C(C(C)C1)C1C(=O)N(CCN3CCOCC3)C(=O)C12 (stereo not given)", "> 100 µM"),
    ("COc1ccc(CC2(O)C3CC4CCC2C4C3)cc1 (stereo not given)", "> 100 µM"),
    ("Cn1c(=O)c2c(nc3n2CC(=O)N3CCCCl)n(C)c1=O", "> 100 µM"),
    ("Fc1ccc(/C=N/n2c(-c3ccc(F)c(Cl)c3)nn(CNc3ccccc3C(F)(F)F)c2=S)cc1", "> 100 µM"),
    ("O=C(Nc1nc2ccc([N+](=O)[O-])cc2s1)C(=O)C(C(=O)c1ccccc1F)C1OC(=O)c2ccccc21 (stereo not given)", "73.4 µM"),
    ("CCC(C=O)P1(=O)OC(C)(C)CN1C(C)(C)C (stereo not given)", "> 100 µM"),
]

Notebook: O=S1(=O)OCCOS(=O)(=O)C1(F)Br , TGI read as > 100 µM

Notebook: C/C=C1\CN2CCc3c([nH]c4ccccc34)C2CC1C(=O)OC (stereo not given) , TGI read as > 322 µM

----------
// reported TGI for each item listed
# Tested on: UACC-62 melanoma
# assay: NCI tumour cell line growth inhibition, 48 h
All answers are understood in µM, so give the number only.

# compound, TGI, µM
data = [
    ("CN[C@@H](C)C(=O)N[C@H](C(=O)N1CCC[C@H]1C(=O)Nc1sc(-c2ncco2)nc1-c1ccccc1)C1CCCCC1", 39.2),
    ("CN(C)CCCn1c(=O)c2ccccc2c2ccccc21", 33.6),
    ("Cc1ccc(C2OC(COCc3ccc(Cl)cc3)C(OCc3ccc(Cl)cc3)C2O)cc1 (stereo unspecified)", 18.7),
    ("CN=c1ccc2nc3ccc(N)cc3sc-2c1", 14),
    ("O=C(O)CN1CCN(CC(=O)O)CC(=O)[O][Hg][O]C(=O)C1", 32.4),
    ("CCOc1ccccc1C(=O)N1CCN(c2cc(Cl)cc(Cl)c2)CC1", 16),
    ("COC1C=COC2(C)Oc3c(C)c(O)c4c(c3C2=O)/C(=N/C2CCC(O)OC2C)C=C(NC(=O)/C(C)=C\\C(=O)C2CC2C(O)C(C)C(O)C(C)C(OC(C)=O)C1C)C4=O (stereo unspecified)", 4.3),
    ("O=C1c2ccccc2-c2cc([N+](=O)[O-])c([N+](=O)[O-])cc21", 3.13),
]

Notebook: CC1=C2[C@@H](CC1)[C@]1(C)O[C@@](c3ccccc3)(C[C@H]1OC(=O)CO)[C@H]2OC(=O)/C=C/c1ccccc1 , TGI read as 36

----------
# Test system: RPMI-8226 leukemia
# assay: NCI tumour cell line growth inhibition, 48 h
Please enter true (1) where TGI is greater than or equal to 20 µM, and false (0) where it is lower.

# compound, system, class
measured = [
    ("C/C(=N\\Nc1ccc([N+](=O)[O-])cc1[N+](=O)[O-])c1sc(-n2nc(-c3ccccc3)cc2-c2ccccc2)nc1C", "RPMI-8226 leukemia", "true (1)"),
    ("Cc1ccc(-c2nnc(-c3nn(-c4ccccc4)c4nc5ccccc5nc34)o2)cc1", "RPMI-8226 leukemia", "true (1)"),
    ("O=C1/C(=C/c2ccccc2[N+](=O)[O-])Cc2ccccc21", "RPMI-8226 leukemia", "false (0)"),
    ("CCn1c2ccccc2c2ccc3c(c21)C(=O)C=CC3=O", "RPMI-8226 leukemia", "true (1)"),
    ("CCOC(=O)C1=NOC2(C=C(Br)C(=O)C(Br)=C2)C1", "RPMI-8226 leukemia", "false (0)"),
]

Challenge: TGI >= 20 µM for O=C(CSc1nnc(Cc2ccccc2)o1)Nc1ccccc1 ?
Response given: true (1)

Challenge: TGI >= 20 µM for OCc1ccc(N2CCCC2c2ccccc2)cc1Cl (stereo unspecified) ?
Response given: true (1)

Challenge: TGI >= 20 µM for CCCCCCCCCCCCCCCCCC1=NCCN1CCOC1=C(Cl)C(=O)c2ccccc2C1=O ?
Response given: false (0)

Challenge: TGI >= 20 µM for O=c1ssc(=Nc2ccccc2)n1-c1ccccc1 ?
Response given: true (1)

Challenge: TGI >= 20 µM for O=S1(=O)OCCOS(=O)(=O)C1(F)Br ?
Response given: true (1)

Challenge: TGI >= 20 µM for CC(C)NCCCn1c(Sc2cc3c(cc2I)OCO3)nc2c(N)ncnc21 ?
Response given: true (1)

Challenge: TGI >= 20 µM for C/C=C1\CN2CCc3c([nH]c4ccccc34)C2CC1C(=O)OC (stereo unspecified) ?
Response given: true (1)

Challenge: TGI >= 20 µM for CC(=O)/C=C/c1cn(C(=O)OC(C)(C)C)c2ccc(Br)cc12 ?
Response given: true (1)

Challenge: TGI >= 20 µM for N#CC(C#N)=C1NC(=O)CC(=O)N1 ?
Response given: true (1)

Challenge: TGI >= 20 µM for CCC1(c2ccccc2)C(=O)N=C(c2ccccc2)N1CCc1ccccc1 (stereo unspecified) ?
Response given: true (1)

Challenge: TGI >= 20 µM for O=C(NC1CCCCC1NC(c1ccccc1)(c1ccccc1)c1ccccc1)C(=O)NC1CCCCC1NC(c1ccccc1)(c1ccccc1)c1ccccc1 (stereo unspecified) ?
Response given: true (1)

----------
// reported TGI for each item listed
# Tested on: HOP-92 NSCLC
# assay: NCI tumour cell line growth inhibition, 48 h
All answers are understood in µM, so give the number only.

# molecularString, system, measurementName, valueObserved
data = [
    ("CNCCCNCCCCNCCCN1C(=O)c2ccc3c4c(ccc(c24)C1=O)C(=O)N(CCCNCc1ccccc1OC)C3=O", "HOP-92 NSCLC", "TGI", 18.9),
]

Now examine the next entry.
Notebook: CC(C)NCCCn1c(Sc2cc3c(cc2I)OCO3)nc2c(N)ncnc21 , TGI read as 1.62

----------
# Test system: HOP-92 NSCLC
# assay: NCI tumour cell line growth inhibition, 48 h
measurementName: TGI (µM)
All answers are understood in µM, so give the number only.

Past entries and their recorded results:
# molecule, system, TGI [µM]
measured = [
    ("Cc1ccc2c(C3Cc4ccccc4N3C(=O)/C=C\\C(=O)O)c(C)[nH]c2c1 (stereo not drawn)", "HOP-92 NSCLC", 84.1),
    ("Cc1cc(S(=O)(=O)Nc2nc3ccccc3nc2-c2cccc([N+](=O)[O-])c2)c(S)cc1Cl", "HOP-92 NSCLC", 46.5),
    ("O=C(/C=C/c1ccccc1)CCN1CCOCC1", "HOP-92 NSCLC", 38.1),
    ("COC1=CC(=O)C2=C(C1=O)[C@H]1CC[C@]3(C)[C@@H](O)CC[C@H]3[C@@H]1CC2", "HOP-92 NSCLC", 37.5),
    ("O=C(NN1C(=O)CSC12CCCCC2)c1[nH]c2ccc(Br)cc2c1-c1ccccc1", "HOP-92 NSCLC", 42.3),
    ("c1cnn2ncc(-c3ccnc(NCCCN4CCOCC4)n3)c2c1", "HOP-92 NSCLC", 17.4),
    ("COC1C=COC2(C)Oc3c(C)c(O)c4c(c3C2=O)/C(=N/C2CCC(O)OC2C)C=C(NC(=O)/C(C)=C\\C(=O)C2CC2C(O)C(C)C(O)C(C)C(OC(C)=O)C1C)C4=O (stereo not drawn)", "HOP-92 NSCLC", 5.29),
    ("O=c1ssc(=Nc2ccccc2)n1-c1ccccc1", "HOP-92 NSCLC", 98.5),
]

Now examine the next entry.
Notebook: CN1CCN(C(=O)c2cc(-c3ccc4ncnc(N5CCc6cc(F)c(Cl)cc65)c4c3)cnc2N)CC1 , TGI read as 1.08
